# protocol.notes: Particle size distribution, laser diffraction (Malvern Mastersizer S, wet)
# Assay type: physicochemical
# study.conditions: mean diameter by volume
Rule: Particle Size Distribution D[4,3] below 30 μm gives rule met, anything at or above gives rule not met.

Problem: Please let me know if C[C@@H](c1ncncc1F)[C@](O)(Cn1cncn1)c1ccc(F)cc1F [Example 5, voriconazole] shows Particle Size Distribution D[4,3] below 30 μm.
Solution: rule not met

Problem: Please let me know if C[C@@H](c1ncncc1F)[C@](O)(Cn1cncn1)c1ccc(F)cc1F [Example 3, voriconazole] shows Particle Size Distribution D[4,3] below 30 μm.
Solution: rule met

Problem: Please let me know if C[C@@H](c1ncncc1F)[C@](O)(Cn1cncn1)c1ccc(F)cc1F [Example 2, voriconazole] shows Particle Size Distribution D[4,3] below 30 μm.
Solution: rule not met

Problem: Please let me know if C[C@@H](c1ncncc1F)[C@](O)(Cn1cncn1)c1ccc(F)cc1F [Example 8, voriconazole] shows Particle Size Distribution D[4,3] below 30 μm.
Solution: rule met

Problem: Please let me know if C[C@@H](c1ncncc1F)[C@](O)(Cn1cncn1)c1ccc(F)cc1F [Example 6, voriconazole] shows Particle Size Distribution D[4,3] below 30 μm.
Solution: rule not met

Problem: Please let me know if C[C@@H](c1ncncc1F)[C@](O)(Cn1cncn1)c1ccc(F)cc1F [Example 7, voriconazole] shows Particle Size Distribution D[4,3] below 30 μm.
Solution: rule met

Problem: Please let me know if C[C@@H](c1ncncc1F)[C@](O)(Cn1cncn1)c1ccc(F)cc1F [Comparative Example 2, voriconazole, reference compound] shows Particle Size Distribution D[4,3] below 30 μm.
Solution: rule met

----------
The compounds listed here are annotated with their D[3,2] (Sauter diameter, DMVS).
# protocol.notes: Particle size distribution, laser diffraction (Malvern Mastersizer S, wet)
# Assay type: physicochemical
# study.conditions: mean diameter by surface area to volume
Numeric answer only, unit μm assumed.

See these solved cases before continuing.
C[C@@H](c1ncncc1F)[C@](O)(Cn1cncn1)c1ccc(F)cc1F [Example 5, voriconazole] | 15.8
C[C@@H](c1ncncc1F)[C@](O)(Cn1cncn1)c1ccc(F)cc1F [Example 4, voriconazole] | 12.3

Problem: State the recorded D[3,2] (Sauter diameter, DMVS) for this entry: C[C@@H](c1ncncc1F)[C@](O)(Cn1cncn1)c1ccc(F)cc1F [Example 6, voriconazole]
Solution: 17.2

Problem: State the recorded D[3,2] (Sauter diameter, DMVS) for this entry: C[C@@H](c1ncncc1F)[C@](O)(Cn1cncn1)c1ccc(F)cc1F [Example 2, voriconazole]
Solution: 15.4

Problem: State the recorded D[3,2] (Sauter diameter, DMVS) for this entry: C[C@@H](c1ncncc1F)[C@](O)(Cn1cncn1)c1ccc(F)cc1F [Comparative Example 2, voriconazole, reference compound]
Solution: 8.3

Problem: State the recorded D[3,2] (Sauter diameter, DMVS) for this entry: C[C@@H](c1ncncc1F)[C@](O)(Cn1cncn1)c1ccc(F)cc1F [Example 7, voriconazole]
Solution: 14.3

Problem: State the recorded D[3,2] (Sauter diameter, DMVS) for this entry: C[C@@H](c1ncncc1F)[C@](O)(Cn1cncn1)c1ccc(F)cc1F [Example 8, voriconazole]
Solution: 5.2

Problem: State the recorded D[3,2] (Sauter diameter, DMVS) for this entry: C[C@@H](c1ncncc1F)[C@](O)(Cn1cncn1)c1ccc(F)cc1F [Example 3, voriconazole]
Solution: 12.2

----------
# protocol.notes: Particle size distribution, laser diffraction (Malvern Mastersizer S, wet)
# Format: physicochemical
# study.conditions: by volume, mean of six
Label rule, in plain words: Particle Size Distribution D10 of 7 μm and up is met, under 7 μm is not met.

Completed entries (count: 5):
C[C@@H](c1ncncc1F)[C@](O)(Cn1cncn1)c1ccc(F)cc1F [Example 6, voriconazole] | met
C[C@@H](c1ncncc1F)[C@](O)(Cn1cncn1)c1ccc(F)cc1F [Example 8, voriconazole] | not met
C[C@@H](c1ncncc1F)[C@](O)(Cn1cncn1)c1ccc(F)cc1F [Example 7, voriconazole] | met
C[C@@H](c1ncncc1F)[C@](O)(Cn1cncn1)c1ccc(F)cc1F [Example 2, voriconazole] | met
C[C@@H](c1ncncc1F)[C@](O)(Cn1cncn1)c1ccc(F)cc1F [Example 4, voriconazole] | not met

Problem: Identify whether the reported Particle Size Distribution D10 of the following molecule is 7 μm or greater: C[C@@H](c1ncncc1F)[C@](O)(Cn1cncn1)c1ccc(F)cc1F [Example 5, voriconazole]
Solution: met

Problem: Identify whether the reported Particle Size Distribution D10 of the following molecule is 7 μm or greater: C[C@@H](c1ncncc1F)[C@](O)(Cn1cncn1)c1ccc(F)cc1F [Example 3, voriconazole]
Solution: not met

----------
The molecules listed here are annotated with their Particle Size Distribution D50.
# protocol.notes: Particle size distribution, laser diffraction (Malvern Mastersizer S, wet)
# Format: physicochemical
# study.conditions: by volume, mean of six
Numeric answer only, unit μm assumed.

See these solved cases before continuing.
C[C@@H](c1ncncc1F)[C@](O)(Cn1cncn1)c1ccc(F)cc1F [Comparative Example 2, voriconazole, reference compound] | 15.2
C[C@@H](c1ncncc1F)[C@](O)(Cn1cncn1)c1ccc(F)cc1F [Example 2, voriconazole] | 29.7
C[C@@H](c1ncncc1F)[C@](O)(Cn1cncn1)c1ccc(F)cc1F [Example 8, voriconazole] | 7.3

Problem: State the recorded Particle Size Distribution D50 for this entry: C[C@@H](c1ncncc1F)[C@](O)(Cn1cncn1)c1ccc(F)cc1F [Example 7, voriconazole]
Solution: 25.3

----------
The compounds listed here are annotated with their sphericity factor Ψw.
# protocol.notes: Sphericity factor calculated from density, Sauter diameter and specific surface area
# Assay type: physicochemical
# study.conditions: calculated using the measured particle density value
// keep it numeric: no unit symbol after the value

See these solved cases before continuing.
C[C@@H](c1ncncc1F)[C@](O)(Cn1cncn1)c1ccc(F)cc1F [Example 6, voriconazole] | 0.25
C[C@@H](c1ncncc1F)[C@](O)(Cn1cncn1)c1ccc(F)cc1F [Example 3, voriconazole] | 0.34
C[C@@H](c1ncncc1F)[C@](O)(Cn1cncn1)c1ccc(F)cc1F [Example 2, voriconazole] | 0.31
C[C@@H](c1ncncc1F)[C@](O)(Cn1cncn1)c1ccc(F)cc1F [Example 4, voriconazole] | 0.34

Problem: State the recorded sphericity factor Ψw for this entry: C[C@@H](c1ncncc1F)[C@](O)(Cn1cncn1)c1ccc(F)cc1F [Example 5, voriconazole]
Solution: 0.24

----------
# protocol.notes: BET specific surface area (Micromeritics Gemini V, N2 at 77 K)
# Assay type: physicochemical
# study.conditions: N2 adsorption at 77 K
# Description: The specific surface area values disclosed in the present invention have been obtained by means of a specific surface area analysis technique based on the BET (Brunauer, Emmett and Teller) theory, which is a well-accepted theory known in the art for the calculation of surface areas of solids by means of measuring their physical adsorption of gas molecules (See S. Brunauer, P. H. Emmett and E. Teller, J. Am. Chem. Soc., 1938, 60, 309). […]
observed.property: Specific Surface Area (BET), Sw (m^2/g)
Numeric answer only, unit m^2/g assumed.

C[C@@H](c1ncncc1F)[C@](O)(Cn1cncn1)c1ccc(F)cc1F [Example 2, voriconazole] | 0.9319

Problem: State the recorded Specific Surface Area (BET), Sw for this entry: C[C@@H](c1ncncc1F)[C@](O)(Cn1cncn1)c1ccc(F)cc1F [Example 3, voriconazole]
Solution: 1.0997

Problem: State the recorded Specific Surface Area (BET), Sw for this entry: C[C@@H](c1ncncc1F)[C@](O)(Cn1cncn1)c1ccc(F)cc1F [Example 7, voriconazole]
Solution: 1.1032

Problem: State the recorded Specific Surface Area (BET), Sw for this entry: C[C@@H](c1ncncc1F)[C@](O)(Cn1cncn1)c1ccc(F)cc1F [Example 4, voriconazole]
Solution: 1.0992

Problem: State the recorded Specific Surface Area (BET), Sw for this entry: C[C@@H](c1ncncc1F)[C@](O)(Cn1cncn1)c1ccc(F)cc1F [Example 8, voriconazole]
Solution: 1.5910

Problem: State the recorded Specific Surface Area (BET), Sw for this entry: C[C@@H](c1ncncc1F)[C@](O)(Cn1cncn1)c1ccc(F)cc1F [Example 5, voriconazole]
Solution: 1.1451

Problem: State the recorded Specific Surface Area (BET), Sw for this entry: C[C@@H](c1ncncc1F)[C@](O)(Cn1cncn1)c1ccc(F)cc1F [Example 6, voriconazole]
Solution: 0.9769

----------
# protocol.notes: Particle size distribution, laser diffraction (Malvern Mastersizer S, wet)
# Format: physicochemical
# study.conditions: by volume, mean of six
observed.property: Particle Size Distribution D50 (μm)
Numeric answer only, unit μm assumed.

See these solved cases before continuing.
C[C@@H](c1ncncc1F)[C@](O)(Cn1cncn1)c1ccc(F)cc1F [Example 6, voriconazole] | 33.4
C[C@@H](c1ncncc1F)[C@](O)(Cn1cncn1)c1ccc(F)cc1F [Example 5, voriconazole] | 32.3

Problem: State the recorded Particle Size Distribution D50 for this entry: C[C@@H](c1ncncc1F)[C@](O)(Cn1cncn1)c1ccc(F)cc1F [Example 3, voriconazole]
Solution: 21.7

Problem: State the recorded Particle Size Distribution D50 for this entry: C[C@@H](c1ncncc1F)[C@](O)(Cn1cncn1)c1ccc(F)cc1F [Example 4, voriconazole]
Solution: 22.4
